compounds and their reported Lipophilic Efficiency (logD)
- System: parental HEK cells
- Test Method Notes: HEK parental Agonist Counterscreen Assay (non-transfected cells)
- Assay type: cell-based
- Assay Conditions: HEK Agonist Activity

Study these solved cases before continuing.
CCc1nn(CC(=O)NCc2cccc(Br)c2)c(=O)c2cc3occc3n12: 2.60
CCCCNC(=O)NNC(=O)CSc1cc(C)c(Br)cc1C: 1.46
CC(NC(=O)Cn1cc(NC(=O)c2ccccc2F)cn1)c1ccccc1Cl (centres unmarked): 1.58
O=C(Cn1nc(Cc2ccncc2)c2ccccc2c1=O)NC(O)CCc1ccccc1 (centres unmarked): 1.41
CC(C)CN1CCNC(=O)C1CC(=O)NCCCn1ccc2ccccc21 (centres unmarked): 3.48

Enquiry: Respond only with Lipophilic Efficiency (logD) recorded for CC(=O)c1cccc(C(C)(C)CC(=O)CNC(=O)c2ccccc2)c1
Return: 2.46

Enquiry: Specify measured Lipophilic Efficiency (logD) for Cc1cc(Cl)ccc1OCC(=O)NNC(=O)C1CC1c1ccccc1 (centres unmarked) .
Return: 1.64

Enquiry: Report measured Lipophilic Efficiency (logD); entry is COc1ccc(-c2nnn(CC(=O)NCCc3c[nH]c4ccccc34)n2)cc1OC
Return: 1.97

###

- Tested On: GPR139 (Homo sapiens, UniProt Q6DWJ6)
- Sequence (Q6DWJ6 1-353): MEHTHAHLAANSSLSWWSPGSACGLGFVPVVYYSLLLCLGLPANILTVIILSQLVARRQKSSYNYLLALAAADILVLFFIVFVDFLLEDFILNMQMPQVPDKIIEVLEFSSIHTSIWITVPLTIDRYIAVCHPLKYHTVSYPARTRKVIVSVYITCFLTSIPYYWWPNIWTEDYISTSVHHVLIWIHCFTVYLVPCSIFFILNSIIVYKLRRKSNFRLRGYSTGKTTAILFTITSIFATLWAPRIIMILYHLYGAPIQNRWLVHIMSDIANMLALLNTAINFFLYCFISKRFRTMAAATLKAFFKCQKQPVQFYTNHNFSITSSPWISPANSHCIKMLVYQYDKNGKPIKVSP
- Test Method Notes: GPR139 Agonist titration / agonist counterscreen assay (calcium detection, HEK-GPR139 cells)
- Type: cell-based
- Parameters: expressed in transfected cells; host or cells: HEK Aequorin cells, Maxcyte transient transfection
- Assay Conditions: GPR139 Agonist Activity; values printed in E-notation without unit; read-out: EC50
Listed here are compounds together with their documented EC50.
Give the value, in units of µM, as a plain number.

O=C(Nc1ccc(-c2cn[nH]c2)cc1OCCN1CCCC1)C1COc2ccc(F)cc2C1.O=C(O)C(F)(F)F.O=C(O)C(F)(F)F (stereo not drawn) [SR-00000005389]: 0.186

Enquiry: Provide the reported EC50 (system: GPR139 (Homo sapiens, UniProt Q6DWJ6)) for COc1ccc(C(C)N2CC34C=CC(O3)C(C(=O)OCC(C)C)C4C2=O)cc1 (stereo not drawn) [SR-01000114500]
Return: 0.184

###

- Tested On: GPR139 (Homo sapiens, UniProt Q6DWJ6)
- Sequence (Q6DWJ6 1-353): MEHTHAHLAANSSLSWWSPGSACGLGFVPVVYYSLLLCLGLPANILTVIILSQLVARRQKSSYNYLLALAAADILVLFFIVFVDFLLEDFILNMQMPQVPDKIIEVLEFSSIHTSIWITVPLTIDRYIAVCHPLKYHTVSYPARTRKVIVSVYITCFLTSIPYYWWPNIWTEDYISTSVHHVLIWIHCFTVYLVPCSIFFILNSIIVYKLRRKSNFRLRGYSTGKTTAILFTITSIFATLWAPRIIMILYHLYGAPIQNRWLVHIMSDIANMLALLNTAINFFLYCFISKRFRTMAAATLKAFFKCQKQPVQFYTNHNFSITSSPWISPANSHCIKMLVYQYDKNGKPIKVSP
- Test Method Notes: GPR139 Agonist titration / agonist counterscreen assay (calcium detection, HEK-GPR139 cells)
- Type: cell-based
- Set-up: expressed in transfected cells; host or cells: HEK Aequorin cells, Maxcyte transient transfection
- Assay Conditions: GPR139 Agonist Activity
Measurement Label: Lipophilic Efficiency (logD)
The answer should be a number; do not append a unit.

These solved cases illustrate the format of a correct answer.
O=C(CN1C(=O)NC2(CCc3ccccc3C2)C1=O)Nc1cccc2ccccc12 (centres unmarked): 2.77
O=C(CNC(=O)c1ccc(Br)o1)NC1CCCc2ccccc21 (centres unmarked): 4.09

Enquiry: Input COC(=O)c1ccc(NC(=O)CNC(=O)C2CCCCC2)c(C)c1 , output reported Lipophilic Efficiency (logD).
Return: 3.52

Enquiry: Read the entry CC(C)C(=O)NNC(=O)C(C)Oc1ccc(Cl)cc1Cl (centres unmarked) and write its reported Lipophilic Efficiency (logD).
Return: 2.81

Enquiry: Report Lipophilic Efficiency (logD), nothing else, for this molecule: O=C(Cn1ccc2ccccc21)NCCCC(=O)Nc1cccc2cccnc12
Return: 3.52

Enquiry: Provide measured Lipophilic Efficiency (logD) value, entry: Cn1c(CCc2ccc(F)cc2F)nnc1C1=C(O)N=C2CC=CC21 (centres unmarked)
Return: 2.32

Enquiry: Give reported Lipophilic Efficiency (logD) value for C=C1N=C(NC2CCCCCC2)c2ccccc2N1
Return: 2.40

Enquiry: Item COc1ccccc1NC(=O)C(=O)NNC(=O)COc1ccc(Br)cc1C : provide Lipophilic Efficiency (logD)
Return: 3.27

###

- Tested On: GPR139 (Homo sapiens, UniProt Q6DWJ6)
- Test Method Notes: GPR139 Antagonist titration assay (calcium detection, HEK-GPR139 cells, vs EC80 of S-JNJ-63533054)
Recorded GPR139 Antagonist Activity Ligand Efficiency, one value per entry.
Number, no unit, nothing else.

Record excerpt, results attached:
O=C(NCCC1CCCCC1)N1c2ccccc2Sc2ccccc21 [SR-01000452455]: 0.32
O=C(CCC(=O)OCc1ccc(Br)cc1)Nc1ccc(F)cc1 [SR-01000259336]: 0.33

Now consider the entry below.
Enquiry: Give GPR139 Antagonist Activity Ligand Efficiency for the following compound: COc1ccccc1-n1cc(-c2ccccc2)nc1SCC(=O)Nc1cccc(C)c1C [SR-01000555431]
Return: 0.26

###

- Tested On: GPR139 (Homo sapiens)
- Test Method Notes: GPR139 Agonist titration / agonist counterscreen assay (calcium detection, HEK-GPR139 cells)
- Format: cell-based
- Set-up: expressed in transfected cells; host or cells: HEK Aequorin cells, Maxcyte transient transfection
- Assay Conditions: GPR139 Agonist Activity; based on logD
Measurement Label: Lipophilic Efficiency (logD)
No unit in the answer, only the number.

Below, 3 compounds whose answers are already recorded.
Cc1cccc(COc2coc(COc3nccn3C)cc2=O)c1 [SR-01000916033]: 5.04
COc1cccc(C(=O)NNC(=O)C(C)Oc2ccc(Cl)cc2Cl)c1 (stereo not shown) [SR-01000356497]: 4.97
Cc1c(C(=O)NC(C)(C)CO)cnn1-c1ncc2c(n1)-c1ccccc1CC2 [SR-01000239973]: 5.11

Kindly review the next compound as well.
Enquiry: Identify Lipophilic Efficiency (logD) associated with the compound CC(NC(=O)Cn1ncc2c(Cl)cccc21)c1ccc2c(c1)OCCO2 (stereo not shown) [SR-01000155068]
Return: 5.00

###

- Tested On: UniProt Q6DWJ6
- Sequence (Q6DWJ6 1-353): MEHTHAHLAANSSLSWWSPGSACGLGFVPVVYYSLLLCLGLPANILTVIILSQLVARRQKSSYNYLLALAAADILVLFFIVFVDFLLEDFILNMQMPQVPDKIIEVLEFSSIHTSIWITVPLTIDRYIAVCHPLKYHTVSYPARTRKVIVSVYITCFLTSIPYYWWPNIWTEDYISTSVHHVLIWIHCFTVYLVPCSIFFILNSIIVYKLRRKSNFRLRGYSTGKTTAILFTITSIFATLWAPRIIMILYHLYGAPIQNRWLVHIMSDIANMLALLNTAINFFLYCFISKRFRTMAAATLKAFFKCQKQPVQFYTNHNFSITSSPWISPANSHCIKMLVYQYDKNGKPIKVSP
- Test Method Notes: GPR139 Agonist titration / agonist counterscreen assay (calcium detection, HEK-GPR139 cells)
- Assay type: cell-based
- Design: expressed in transfected cells; host or cells: HEK Aequorin cells, Maxcyte transient transfection
- Assay Conditions: GPR139 Agonist Activity; fitted dose-response curve
Measurement Label: Hill Slope
Output spec: single numeric token, no unit.

O=C(C1CC(Cc2cccc3ccccc23)=NO1)N1CCC(C(O)Cc2ccccc2)CC1 (stereo not shown): 0.46

Enquiry: Tell me Hill Slope of COc1ccc(CNC(=O)Nc2ccc(-c3cn[nH]c3)cc2)cc1.O=C(O)C(F)(F)F when tested on UniProt Q6DWJ6.
Return: 0.58

Enquiry: Report the value of Hill Slope obtained on UniProt Q6DWJ6 for CC1CCCC(NC(=O)CN2CCCN(Cc3ccc(F)cc3Cl)C2=O)C1C (stereo not shown) .
Return: 1.05

Enquiry: Would you please give the reported Hill Slope of CC(CCc1ccccc1)NC(=O)c1ccc2c(c1)C(Cc1ccccc1)C(=O)C[S+]2[O-] (stereo not shown) with UniProt Q6DWJ6?
Return: 0.44
